Molecular target: FXI
Assay: Kd (SPR)
Endpoint: Kd (nM)
Give just the number in nM; leave the unit off.

| Binder | Unit Tag | Result |
| --- | --- | --- |
| unnamed (protein) chain 1: EVQLLESGGGLVQPGGSLRLSCAASGFTFSQYGMDWVRQAPGKGLEWVSGIGPSGGSTVYADSVKGRFTISRDNSKNTLYLQMNSLRAEDTAVYYCTRGGPAYYYGFDYWGQGTTVTVSS chain 2: DIQMTQSPSSLSASVGDRVTITCQASQDISNYLNWYQQKPGKAPKLLIYDASNLETGVPSRFSGSGSGTDFTFTISSLQPEDIATYYCQQADSFPVTFGGGTKVEIK | nM | 148 |
| unnamed (protein) chain 1: EVQLLESGGGLVQPGGSLRLSCAASGFTFSSYAMDWVRQAPGKGLEWVSGISSDGGSTVYADSVKGRFTISRDNSKNTLYLQMNSLRAEDTAVYYCARDGPSYYYAFDVWGQGTTVTVSS chain 2: DIQMTQSPSSLSASVGDRVTITCQASQDISNYLNWYQQKPGKAPKLLIYDASNLETGVPSRFSGSGSGTDFTFTISSLQPEDIATYYCQQADSFPVTFGGGTKVEIK | nM | 51.1 |

Note: attention shifts to another entry.
Kindly note the recorded Kd for unnamed (protein) chain 1: EVQLLESGGGLVQPGGSLRLSCAASGFTFSQYGMDWVRQAPGKGLEWVSGIGPSGGSTVYADSVKGRFTISRDNSKNTLYLQMNSLRAEDTAVYYCTRGGPAWYYAFDVWGQGTTVTVSS chain 2: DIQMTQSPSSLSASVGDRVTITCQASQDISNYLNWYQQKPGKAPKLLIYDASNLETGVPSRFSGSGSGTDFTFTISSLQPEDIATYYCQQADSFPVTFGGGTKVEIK , which is 241
